Where do the numbers come from? From paper PMC8143347.

Test: Plasma and tumor PK in B16F10 melanoma xenograft mice
Format: in vivo, mouse
Conditions: C57BL/6, mouse, tumor; B16F10 mice, IMMH-010 maleate 5 mg/kg PO; read-out: t1/2β in tumor (converted)
assayMetric: half-life (h)
Just the number please, in h, no unit attached.

Request: Need half-life, item O=C(O)[C@H](CO)NCc1cc(Cl)c(OCc2cccc(-c3ccccc3)c2Br)cc1OCc1cccnc1 [YPD-29B]
Result: 12.4

* * *

Assay: Plasma and tumor PK in MC38 colon cancer xenograft mice
Type: in vivo, mouse
Conditions: C57BL/6, mouse, tumor and plasma, IMMH-010 maleate 5 mg/kg PO, read-out: tissue/plasma ratio (AUCtumor/AUCplasma)
assayMetric: Kp
Form: value (number only, do not type unit).

Request: Need Kp, item O=C(O)[C@H](CO)NCc1cc(Cl)c(OCc2cccc(-c3ccccc3)c2Br)cc1OCc1cccnc1 [YPD-29B]
Result: 2.4

* * *

Test: Plasma and tumor PK in MC38 colon cancer xenograft mice
Format: in vivo, mouse
Details: C57BL/6, mouse, tumor, IMMH-010 maleate 5 mg/kg PO, read-out: t1/2β in tumor (converted)
assayMetric: half-life (h)
Just the number please, in h, no unit attached.

Request: Need half-life, item O=C(O)[C@H](CO)NCc1cc(Cl)c(OCc2cccc(-c3ccccc3)c2Br)cc1OCc1cccnc1 [YPD-29B]
Result: 45

* * *

Test: Plasma and tumor PK in B16F10 melanoma xenograft mice
Assay type: in vivo, mouse
Details: C57BL/6, mouse, plasma; B16F10 mice, IMMH-010 maleate 5 mg/kg PO; read-out: elimination half-life (t1/2β) in plasma (converted)
assayMetric: half-life (h)
Just the number please, in h, no unit attached.

Request: Need half-life, item O=C(O)[C@H](CO)NCc1cc(Cl)c(OCc2cccc(-c3ccccc3)c2Br)cc1OCc1cccnc1 [YPD-29B]
Result: 1.61

* * *

Assay: Plasma and tumor PK in MC38 colon cancer xenograft mice
Format: in vivo, mouse
Conditions: C57BL/6, mouse, plasma, IMMH-010 maleate 5 mg/kg PO, read-out: mean time of peak plasma concentration (converted)
Experimental: After the final dose, tumor and blood samples treated with IMMH-010 maleate (5 mg/kg) were collected over 72 h. Blood was exposed in an EP tube containing 500 mM NaF and 0.5% heparin sodium. […] The concentration of IMMH-010 and YPD-29B in plasma and tumor samples was quantitated by an LC-MS/MS method. […] All statistics were calculated using GraphPad Prism 8.0 software (San Diego, CA, USA) designed for one-way ANOVA. […] Data were expressed as means ± standard deviations (SD). […]
assayMetric: Tmax (min)
Just the number please, in min, no unit attached.

Request: Need Tmax, item O=C(O)[C@H](CO)NCc1cc(Cl)c(OCc2cccc(-c3ccccc3)c2Br)cc1OCc1cccnc1 [YPD-29B]
Result: 15

* * *

Experiment: Plasma and tumor PK in B16F10 melanoma xenograft mice
Assay type: in vivo, mouse
Conditions: C57BL/6, mouse, plasma; B16F10 mice, IMMH-010 maleate 5 mg/kg PO; read-out: mean time of peak plasma concentration (converted)
assayMetric: Tmax (min)
Just the number please, in min, no unit attached.

Request: Need Tmax, item O=C(O)[C@H](CO)NCc1cc(Cl)c(OCc2cccc(-c3ccccc3)c2Br)cc1OCc1cccnc1 [YPD-29B]
Result: 15

* * *

Recorded Cmax by entry
Test: PK study in male cynomolgus monkeys
Assay type: in vivo, cynomolgus monkey
Settings: cynomolgus monkey, plasma, single oral IMMH-010 maleate 5 mg/kg
Just the number please, in ng/mL, no unit attached.

{"columns": ["compound", "Cmax (ng/mL)"],
 "data": [
  ["O=C(O)[C@H](CO)NCc1cc(Cl)c(OCc2cccc(-c3ccccc3)c2Br)cc1OCc1cccnc1 [YPD-29B]", 35.5]
]}

The record that follows has no Cmax shown yet.
Request: Need Cmax, item CC(C)OC(=O)[C@H](CO)NCc1cc(Cl)c(OCc2cccc(-c3ccccc3)c2Br)cc1OCc1cccnc1 [IMMH-010]
Result: 9.46
